- Test system: Enterococcus faecalis
- procedure_text: Antimicrobial activity against Enterococcus faecalis ATCC 29212 after 24 hrs by broth microdilution method
- Format: functional
- test_settings: ATCC 29212, 24 h
Strictly below 200 µg/mL in MIC: condition met. Otherwise: condition not met.

Query string: Is the reported MIC for `COc1ccc(Nn2c(SCC(=O)c3ccccc3)nc(C)c2C)cc1` strictly below 200 µg/mL?
Result string: condition not met

Query string: How about this molecule: `COc1cccc(C(=O)CSc2nc(C)c(C)n2Nc2ccccc2)c1`
Result string: condition not met

Query string: How about this molecule: `COc1ccc(C(=O)CSc2nc(C)c(C)n2Nc2ccc(Cl)cc2)cc1OC`
Result string: condition met

Query string: How about this molecule: `COc1ccc(Nn2c(SCC(=O)c3cccc(OC)c3)nc(C)c2C)cc1`
Result string: condition not met

Query string: How about this molecule: `COc1ccc(Nn2c(SCC(=O)c3ccc(OC)c(OC)c3)nc(C)c2C)cc1`
Result string: condition not met

Query string: How about this molecule: `Cc1nc(SCC(=O)c2cccc(F)c2)n(Nc2ccccc2)c1C`
Result string: condition not met

Query string: How about this molecule: `COc1ccc(Nn2c(SCC(=O)c3ccc(F)cc3)nc(C)c2C)cc1`
Result string: condition not met

Query string: How about this molecule: `COc1ccc(Nn2c(SCC(=O)c3ccc(F)c(F)c3)nc(C)c2C)cc1`
Result string: condition not met

Query string: How about this molecule: `Cc1nc(SCC(=O)c2ccccc2)n(Nc2ccccc2)c1C`
Result string: condition not met

Query string: How about this molecule: `Cc1nc(SCC(=O)c2cccc(Cl)c2)n(Nc2ccc(Cl)cc2)c1C`
Result string: condition not met

Query string: How about this molecule: O=C(N[C@H](CO)[C@H](O)c1ccc([N+](=O)[O-])cc1)C(Cl)Cl [CHLORAMPHENICOL]
Result string: condition met

Query string: How about this molecule: `Cc1nc(SCC(=O)c2ccc(F)cc2)n(Nc2ccc(Cl)cc2)c1C`
Result string: condition not met

Query string: How about this molecule: `Cc1ccc(Nn2c(SCC(=O)c3ccc(F)c(F)c3)nc(C)c2C)cc1`
Result string: condition not met

Query string: How about this molecule: `Cc1ccc(Nn2c(SCC(=O)c3ccc(Cl)cc3)nc(C)c2C)cc1`
Result string: condition not met

Query string: How about this molecule: `Cc1nc(SCC(=O)c2ccc(F)c(F)c2)n(Nc2ccc(Cl)cc2)c1C`
Result string: condition met

====

- procedure_text: Toxicity in brine shrimp larvae assessed as mortality after 24 hrs
- Assay type: organism-based
- test_settings: artemia salina, in vivo
Assignment: determine reported LC50 at 24 h for the given compounds.

Query string: What value of LC50 at 24 h has been reported for the following compound? `COc1ccc(C(=O)CSc2nc(C)c(C)n2Nc2ccc(C)cc2)cc1`
Result string: 153 µg/mL

Query string: How about this compound: `Cc1nc(SCC(=O)c2ccc(F)c(F)c2)n(Nc2ccccc2)c1C`
Result string: 465 µg/mL

Query string: How about this compound: `Cc1nc(SCC(=O)c2ccccc2)n(Nc2ccccc2)c1C`
Result string: > 1600 µg/mL

Query string: How about this compound: `Cc1nc(SCC(=O)c2ccc(F)c(F)c2)n(Nc2ccc(Cl)cc2)c1C`
Result string: 359 µg/mL

Query string: How about this compound: `COc1ccc(C(=O)CSc2nc(C)c(C)n2Nc2ccc(C)cc2)cc1OC`
Result string: 1310 µg/mL

====

- Tested on: Pichia kudriavzevii
- procedure_text: Antimicrobial activity against Candida krusei ATCC 6258 after 24 hrs by broth microdilution method
- Assay type: functional
- test_settings: ATCC 6258, 24 h
property: MIC (µg/mL)
Enter your answer as a number in µg/mL; do not include the unit.

Query string: What value of MIC has been reported for the following compound? `COc1cccc(C(=O)CSc2nc(C)c(C)n2Nc2ccccc2)c1`
Result string: 400

Query string: How about this compound: `Cc1ccc(Nn2c(SCC(=O)c3cccc(F)c3)nc(C)c2C)cc1`
Result string: 400

Query string: How about this compound: `Cc1ccc(Nn2c(SCC(=O)c3ccc(Cl)c(Cl)c3)nc(C)c2C)cc1`
Result string: 800

Query string: How about this compound: `COc1cccc(C(=O)CSc2nc(C)c(C)n2Nc2ccc(Cl)cc2)c1`
Result string: 200

Query string: How about this compound: `COc1ccc(C(=O)CSc2nc(C)c(C)n2Nc2ccccc2)cc1OC`
Result string: 50

Query string: How about this compound: `Cc1nc(SCC(=O)c2ccc(F)c(F)c2)n(Nc2ccc(Cl)cc2)c1C`
Result string: 100

====

- Test system: Candida albicans
- procedure_text: Antimicrobial activity against Candida albicans ATCC 90028 after 24 hrs by broth microdilution method
- Format: functional
- test_settings: ATCC 90028, 24 h
property: MIC (µg/mL)
Enter your answer as a number in µg/mL; do not include the unit.

Query string: Notebook: pull reported MIC for Candida albicans, entry `COc1cccc(C(=O)CSc2nc(C)c(C)n2Nc2ccc(C)cc2)c1`
Result string: 400

Query string: How about this molecule: `Cc1nc(SCC(=O)c2cccc(F)c2)n(Nc2ccc(Cl)cc2)c1C`
Result string: 400

Query string: How about this molecule: `COc1ccc(Nn2c(SCC(=O)c3cccc(Cl)c3)nc(C)c2C)cc1`
Result string: 800

Query string: How about this molecule: `Cc1ccc(Nn2c(SCC(=O)c3cccc(F)c3)nc(C)c2C)cc1`
Result string: 800

Query string: How about this molecule: `Cc1nc(SCC(=O)c2ccc(Cl)c(Cl)c2)n(Nc2ccc(Cl)cc2)c1C`
Result string: 800

Query string: How about this molecule: `COc1ccc(C(=O)CSc2nc(C)c(C)n2Nc2ccc(C)cc2)cc1OC`
Result string: 100

Query string: How about this molecule: `Cc1ccc(Nn2c(SCC(=O)c3ccc(Cl)c(Cl)c3)nc(C)c2C)cc1`
Result string: 800

Query string: How about this molecule: `COc1ccc(Nn2c(SCC(=O)c3ccccc3)nc(C)c2C)cc1`
Result string: 800

Query string: How about this molecule: `Cc1nc(SCC(=O)c2cccc(Cl)c2)n(Nc2ccc(Cl)cc2)c1C`
Result string: 800

Query string: How about this molecule: `Cc1nc(SCC(=O)c2ccccc2)n(Nc2ccc(Cl)cc2)c1C`
Result string: 800

Query string: How about this molecule: `COc1ccc(C(=O)CSc2nc(C)c(C)n2Nc2ccc(OO)cc2)cc1`
Result string: 400

Query string: How about this molecule: `Cc1nc(SCC(=O)c2ccc(F)c(F)c2)n(Nc2ccccc2)c1C`
Result string: 400

Query string: How about this molecule: `COc1ccc(Nn2c(SCC(=O)c3ccc(Cl)cc3)nc(C)c2C)cc1`
Result string: 400

Query string: How about this molecule: `Cc1nc(SCC(=O)c2ccc(Cl)cc2)n(Nc2ccccc2)c1C`
Result string: 200

Query string: How about this molecule: `COc1cccc(C(=O)CSc2nc(C)c(C)n2Nc2ccc(Cl)cc2)c1`
Result string: 800

Query string: How about this molecule: `Cc1nc(SCC(=O)c2ccc(Cl)cc2)n(Nc2ccc(Cl)cc2)c1C`
Result string: 800

Query string: How about this molecule: CC(=O)N1CCN(c2ccc(OCC3COC(Cn4ccnc4)(c4ccc(Cl)cc4Cl)O3)cc2)CC1 (centres undefined) [KETOCONAZOLE]
Result string: 100

Query string: How about this molecule: `Cc1nc(SCC(=O)c2ccc(Cl)c(Cl)c2)n(Nc2ccccc2)c1C`
Result string: 400

Query string: How about this molecule: `Cc1nc(SCC(=O)c2cccc(F)c2)n(Nc2ccccc2)c1C`
Result string: 400

====

- System: Candida albicans
- procedure_text: Antimicrobial activity against Candida albicans ATCC 90028 after 24 hrs by broth microdilution method
- Assay type: functional
- test_settings: ATCC 90028, 24 h
property: MIC (µg/mL)
Enter your answer as a number in µg/mL; do not include the unit.

Query string: What value of MIC has been reported for the following compound? `COc1ccc(Nn2c(SCC(=O)c3ccc(OC)c(OC)c3)nc(C)c2C)cc1`
Result string: 200

Query string: How about this compound: `COc1ccc(Nn2c(SCC(=O)c3cccc(F)c3)nc(C)c2C)cc1`
Result string: 400

Query string: How about this compound: `Cc1nc(SCC(=O)c2ccc(F)cc2)n(Nc2ccccc2)c1C`
Result string: 400

Query string: How about this compound: `Cc1nc(SCC(=O)c2ccc(F)cc2)n(Nc2ccc(Cl)cc2)c1C`
Result string: 800

Query string: How about this compound: `COc1ccc(Nn2c(SCC(=O)c3cccc(OC)c3)nc(C)c2C)cc1`
Result string: 800

Query string: How about this compound: `COc1ccc(Nn2c(SCC(=O)c3ccc(Cl)c(Cl)c3)nc(C)c2C)cc1`
Result string: 800

Query string: How about this compound: `Cc1ccc(Nn2c(SCC(=O)c3ccc(Cl)cc3)nc(C)c2C)cc1`
Result string: 400

Query string: How about this compound: `COc1ccc(C(=O)CSc2nc(C)c(C)n2Nc2ccccc2)cc1OC`
Result string: 200

Query string: How about this compound: `Cc1ccc(Nn2c(SCC(=O)c3ccccc3)nc(C)c2C)cc1`
Result string: 800

Query string: How about this compound: `COc1ccc(Nn2c(SCC(=O)c3ccc(F)c(F)c3)nc(C)c2C)cc1`
Result string: 400

Query string: How about this compound: `COc1ccc(C(=O)CSc2nc(C)c(C)n2Nc2ccccc2)cc1`
Result string: 400

Query string: How about this compound: `COc1cccc(C(=O)CSc2nc(C)c(C)n2Nc2ccccc2)c1`
Result string: 400

Query string: How about this compound: `COc1ccc(C(=O)CSc2nc(C)c(C)n2Nc2ccc(C)cc2)cc1`
Result string: 25

Query string: How about this compound: `Cc1ccc(Nn2c(SCC(=O)c3ccc(F)c(F)c3)nc(C)c2C)cc1`
Result string: 200

Query string: How about this compound: `Cc1ccc(Nn2c(SCC(=O)c3cccc(Cl)c3)nc(C)c2C)cc1`
Result string: 800

Query string: How about this compound: `COc1ccc(C(=O)CSc2nc(C)c(C)n2Nc2ccc(Cl)cc2)cc1`
Result string: 800

Query string: How about this compound: `Cc1nc(SCC(=O)c2ccccc2)n(Nc2ccccc2)c1C`
Result string: 400

Query string: How about this compound: `Cc1nc(SCC(=O)c2ccc(F)c(F)c2)n(Nc2ccc(Cl)cc2)c1C`
Result string: 50

Query string: How about this compound: `COc1ccc(C(=O)CSc2nc(C)c(C)n2Nc2ccc(Cl)cc2)cc1OC`
Result string: 400

Query string: How about this compound: `COc1ccc(Nn2c(SCC(=O)c3ccc(F)cc3)nc(C)c2C)cc1`
Result string: 400

Query string: How about this compound: `Cc1ccc(Nn2c(SCC(=O)c3ccc(F)cc3)nc(C)c2C)cc1`
Result string: 1600

Query string: How about this compound: `Cc1nc(SCC(=O)c2cccc(Cl)c2)n(Nc2ccccc2)c1C`
Result string: 800

Reference source for all entries: ChEMBL document CHEMBL3091428
